Entries annotated with measured TGI
System: T47D
Assay: Cytotoxicity against human T47D cells
Assay type: functional
Conditions: read-out: pTGI (converted)
Reply with just the number (in µM).

Example entries begin here.
[
  {
    "Smiles Structure": "COc1cc(/C=C/c2cc(O)c3ccn(C)c3c2)cc2c1O[C@]1(C)CC[C@@H](O)C(C)(C)[C@H]1C2",
    "TGI (µM)": 60.3
  },
  {
    "Smiles Structure": "COc1cc(/C=C/c2cc(OC)c3ccn(C)c3c2)cc2c1O[C@]1(C)CC[C@@H](O)C(C)(C)[C@H]1C2",
    "TGI (µM)": 38.9
  },
  {
    "Smiles Structure": "COc1cc(/C=C/c2cc(O)c3cc[nH]c3c2)cc2c1O[C@]1(C)CC[C@@H](O)C(C)(C)[C@H]1C2",
    "TGI (µM)": 22.4
  },
  {
    "Smiles Structure": "COc1cc(/C=C/c2cc(OC)c3c(CC=C(C)C)c[nH]c3c2)cc2c1O[C@]1(C)CC[C@@H](O)C(C)(C)[C@H]1C2",
    "TGI (µM)": 17
  },
  {
    "Smiles Structure": "CC1(C)[C@H](O)CC[C@@]2(C)Oc3c(O)cc(/C=C/c4cc(O)c5cc[nH]c5c4)cc3C[C@H]12",
    "TGI (µM)": 27.5
  },
  {
    "Smiles Structure": "COc1cc(/C=C/c2cc(OC)c3c(C/C=C(\\C)CCC=C(C)C)c[nH]c3c2)cc2c1O[C@]1(C)CC[C@@H](O)C(C)(C)[C@H]1C2",
    "TGI (µM)": 34.7
  }
]

Continue with the molecule presented below.
-- ask Field: TGI (T47D). Entry: `COc1cc(/C=C/c2cc(O)c3c(CC=C(C)C)c[nH]c3c2)cc2c1O[C@]1(C)CC[C@@H](O)C(C)(C)[C@H]1C2`
-- reply 31.6

* * *

Test system: IGROV-1
Experiment: Cytotoxicity against human IGROV1 cells
Format: functional
Details: read-out: pTGI (converted)
Assay Readout: TGI (µM)
Report the value in µM with no unit label.

Take a look at these entries with their results.
[
  {
    "Smiles Structure": "COc1cc(/C=C/c2cc(OC)c3cc[nH]c3c2)cc2c1O[C@]1(C)CC[C@@H](O)C(C)(C)[C@H]1C2",
    "TGI (µM)": 13.5
  },
  {
    "Smiles Structure": "COc1cc(/C=C/c2cc(OC)c3ccn(C)c3c2)cc2c1O[C@]1(C)CC[C@@H](O)C(C)(C)[C@H]1C2",
    "TGI (µM)": 45.7
  },
  {
    "Smiles Structure": "COc1cc(/C=C/c2cc(OC)c3c(CC=C(C)C)c[nH]c3c2)cc2c1O[C@]1(C)CC[C@@H](O)C(C)(C)[C@H]1C2",
    "TGI (µM)": 41.7
  },
  {
    "Smiles Structure": "COc1cc(/C=C/c2cc(O)c3cc[nH]c3c2)cc2c1O[C@]1(C)CC[C@@H](O)C(C)(C)[C@H]1C2",
    "TGI (µM)": 10.2
  }
]

Okay, now this molecule:
-- ask I'm curious: which TGI was measured for `COc1cc(/C=C/c2cc(O)c3c(c2)C[C@@H]2C(C)(C)[C@H](O)CC[C@@]2(C)O3)cc2c1ccn2C` tested on IGROV-1?
-- reply 25.7

* * *

Tested on: 786-0
Assay: Cytotoxicity against human 786-0 cells
Type: functional
Conditions: read-out: pTGI (converted)
Assay Readout: log10(TGI) (log10 of the value in nM)
Hey, these are logged values: log10 of TGI, nM being the unit before logging.

// below: answered compounds
[
  {
    "Smiles Structure": "COc1cc(/C=C/c2cc(O)c3c(c2)C[C@@H]2C(C)(C)[C@H](O)CC[C@@]2(C)O3)cc2c1ccn2C",
    "log10(TGI)": 3.23
  },
  {
    "Smiles Structure": "COc1cc(/C=C/c2cc(OC)c3c(CC=C(C)C)c[nH]c3c2)cc2c1O[C@]1(C)CC[C@@H](O)C(C)(C)[C@H]1C2",
    "log10(TGI)": 2.48
  },
  {
    "Smiles Structure": "COc1cc(/C=C/c2cc(O)c3c(C/C=C(\\C)CCC=C(C)C)c[nH]c3c2)cc2c1O[C@]1(C)CC[C@@H](O)C(C)(C)[C@H]1C2",
    "log10(TGI)": 3.05
  },
  {
    "Smiles Structure": "COc1cc(/C=C/c2cc(OC)c3c(C/C=C(\\C)CCC=C(C)C)c[nH]c3c2)cc2c1O[C@]1(C)CC[C@@H](O)C(C)(C)[C@H]1C2",
    "log10(TGI)": 3.27
  },
  {
    "Smiles Structure": "COc1cc(/C=C/c2cc(O)c3cc(CC=C(C)C)[nH]c3c2)cc2c1O[C@]1(C)CC[C@@H](O)C(C)(C)[C@H]1C2",
    "log10(TGI)": 4.04
  }
]

-- ask What measured log10(TGI) is associated with `COc1cc(/C=C/c2cc(O)c3c(c2)C[C@@H]2C(C)(C)[C@H](O)CC[C@@]2(C)O3)cc2[nH]cc(CC=C(C)C)c12` on 786-0?
-- reply 3.39

-- ask What value of log10(TGI) on 786-0 does `COc1cc(/C=C/c2cc(O)c3c(CC=C(C)C)c[nH]c3c2)cc2c1O[C@]1(C)CC[C@@H](O)C(C)(C)[C@H]1C2` have?
-- reply 2.70

-- ask Value wanted: log10(TGI) (786-0) of entry `COc1cc(/C=C/c2cc(OC)c3ccn(C)c3c2)cc2c1O[C@]1(C)CC[C@@H](O)C(C)(C)[C@H]1C2`
-- reply 3.38

-- ask Recall the recorded log10(TGI) for `COc1cc(/C=C/c2cc(O)c3cc[nH]c3c2)cc2c1O[C@]1(C)CC[C@@H](O)C(C)(C)[C@H]1C2` with 786-0 and state it.
-- reply 3.26

-- ask Given the entry `COc1cc(/C=C/c2cc(OC)c3cc[nH]c3c2)cc2c1O[C@]1(C)CC[C@@H](O)C(C)(C)[C@H]1C2` , what log10(TGI) was observed with 786-0?
-- reply 2.67

-- ask Record `CC1(C)[C@H](O)CC[C@@]2(C)Oc3c(O)cc(/C=C/c4cc(O)c5cc[nH]c5c4)cc3C[C@H]12` : what is its log10(TGI) with 786-0?
-- reply 3.07

* * *

System: SK-MEL-28
Test: Cytotoxicity against human SK-MEL-28 cells
Type: functional
Conditions: read-out: pTGI (converted)
Recorded TGI values for a group of molecules are listed next.
# value in µM; strip the unit string

A selection of reference data follows.
[
  {
    "Smiles Structure": "COc1cc(/C=C/c2cc(OC)c3cc[nH]c3c2)cc2c1O[C@]1(C)CC[C@@H](O)C(C)(C)[C@H]1C2",
    "Unit Annotation": "µM",
    "Numeric Result": 0.776
  },
  {
    "Smiles Structure": "COc1cc(/C=C/c2cc(OC)c3c(C/C=C(\\C)CCC=C(C)C)c[nH]c3c2)cc2c1O[C@]1(C)CC[C@@H](O)C(C)(C)[C@H]1C2",
    "Unit Annotation": "µM",
    "Numeric Result": 2.95
  },
  {
    "Smiles Structure": "COc1cc(/C=C/c2cc(O)c3c(c2)C[C@@H]2C(C)(C)[C@H](O)CC[C@@]2(C)O3)cc2c1ccn2C",
    "Unit Annotation": "µM",
    "Numeric Result": 17.4
  }
]

-- ask Hello, I am looking for reported TGI with SK-MEL-28 for `COc1cc(/C=C/c2cc(O)c3c(c2)C[C@@H]2C(C)(C)[C@H](O)CC[C@@]2(C)O3)cc2[nH]cc(CC=C(C)C)c12` . Could you help?
-- reply 10.7

-- ask Value wanted: TGI (SK-MEL-28) of entry `COc1cc(/C=C/c2cc(OC)c3ccn(C)c3c2)cc2c1O[C@]1(C)CC[C@@H](O)C(C)(C)[C@H]1C2`
-- reply 17.4

* * *

Test system: DU-145
Assay: Cytotoxicity against human DU145 cells
Type: functional
Assay Readout: GI50
Please answer in the form of a number followed by its unit of measurement.

Some solved cases for reference:
[
  {
    "Smiles Structure": "COc1cc(/C=C/c2cc(OC)c3ccn(C)c3c2)cc2c1O[C@]1(C)CC[C@@H](O)C(C)(C)[C@H]1C2",
    "Result": "2.45 µM"
  },
  {
    "Smiles Structure": "COc1cc(/C=C/c2cc(O)c3ccn(C)c3c2)cc2c1O[C@]1(C)CC[C@@H](O)C(C)(C)[C@H]1C2",
    "Result": "3.8 µM"
  },
  {
    "Smiles Structure": "COc1cc(/C=C/c2cc(O)c3c(c2)C[C@@H]2C(C)(C)[C@H](O)CC[C@@]2(C)O3)cc2c1ccn2C",
    "Result": "5.62 µM"
  },
  {
    "Smiles Structure": "COc1cc(/C=C/c2cc(O)c3cc(CC=C(C)C)[nH]c3c2)cc2c1O[C@]1(C)CC[C@@H](O)C(C)(C)[C@H]1C2",
    "Result": "8.13 µM"
  },
  {
    "Smiles Structure": "COc1cc(/C=C/c2cc(OC)c3c(CC=C(C)C)c[nH]c3c2)cc2c1O[C@]1(C)CC[C@@H](O)C(C)(C)[C@H]1C2",
    "Result": "2.04 µM"
  }
]

-- ask // query GI50 value for entry `COc1cc(/C=C/c2cc(O)c3cc[nH]c3c2)cc2c1O[C@]1(C)CC[C@@H](O)C(C)(C)[C@H]1C2`
-- reply 1.15 µM

-- ask // GI50 lookup, key: `COc1cc(/C=C/c2cc(OC)c3cc[nH]c3c2)cc2c1O[C@]1(C)CC[C@@H](O)C(C)(C)[C@H]1C2`
-- reply 1.07 µM

-- ask # query: GI50 of entry `COc1cc(/C=C/c2cc(O)c3c(c2)C[C@@H]2C(C)(C)[C@H](O)CC[C@@]2(C)O3)cc2[nH]cc(CC=C(C)C)c12`
-- reply 5.25 µM

-- ask What does the data say about its GI50? Entry: `COc1cc(/C=C/c2cc(OC)c3c(C/C=C(\C)CCC=C(C)C)c[nH]c3c2)cc2c1O[C@]1(C)CC[C@@H](O)C(C)(C)[C@H]1C2`
-- reply 3.8 µM

-- ask Any idea what its GI50 is? The compound is `COc1cc(/C=C/c2cc(O)c3c(CC=C(C)C)c[nH]c3c2)cc2c1O[C@]1(C)CC[C@@H](O)C(C)(C)[C@H]1C2`
-- reply 3.55 µM

-- ask Endpoint output: GI50 of `CC1(C)[C@H](O)CC[C@@]2(C)Oc3c(O)cc(/C=C/c4cc(O)c5cc[nH]c5c4)cc3C[C@H]12` . Value?
-- reply 0.912 µM

-- ask I have this compound here, `COc1cc(/C=C/c2cc(O)c3c(C/C=C(\C)CCC=C(C)C)c[nH]c3c2)cc2c1O[C@]1(C)CC[C@@H](O)C(C)(C)[C@H]1C2` , and I need its recorded GI50.
-- reply 5.37 µM

src = ChEMBL document CHEMBL3232844
